System: mouse/rat in vivo micronucleus assay, summary call
PROTOCOL: In vivo micronucleus assay summary data;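 also: micronucleated red cells of rat or mouse bone marrow or blood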
Results filed as inconclusive are left out. The source made the active and inactive calls. No rule for the calls is given here. *1 amine or outer side, *2 acyl side, *3 side chain or, on linkers, in order; H or OH if unused. Where a SMILES comes first, the peptide text is derived from it. Bridges are numbered along the chain shown (N, C = ends). Roman numbers before positions name the chains, in order. [ ]: non-standard residue; d: D form. Actinocin(9to1) = Cc1c2oc3c(C)ccc(C(=O)[*:1])c3nc-2c(C(=O)[*:2])c(N)c1=O; NMeV = CN[C@H](C(=O)O)C(C)C; Sar = CNCC(=O)O
REPORTED_ENDPOINT: outcome

COMPOUND: Nc1ccc(-c2ccccc2)cc1
MEASURED_VALUE: active; positive
//
COMPOUND: CS(=O)(=O)OC[C@H](O)[C@@H](O)COS(C)(=O)=O
MEASURED_VALUE: active; positive
//
COMPOUND: S=c1[nH]c2ccccc2s1
MEASURED_VALUE: inactive; negative
//
COMPOUND: CCCCOCCO
MEASURED_VALUE: inactive; negative
//
COMPOUND: CC#N
MEASURED_VALUE: active; positive
//
COMPOUND: c1cc(OCC2CO2)cc(OCC2CO2)c1 (stereo not drawn)
MEASURED_VALUE: active; positive
//
COMPOUND: Cc1cc(O)c2c(c1)C(=O)c1cc(O)cc(O)c1C2=O
MEASURED_VALUE: active; positive
//
COMPOUND: CCCC=NO
MEASURED_VALUE: active; positive
//
COMPOUND: O=C(O)C(Cl)Cl
MEASURED_VALUE: active; positive
//
COMPOUND: C[N+](C)(C)Cc1ccccc1
MEASURED_VALUE: active; positive
//
COMPOUND: Oc1cccc(O)c1
MEASURED_VALUE: active; positive
//
COMPOUND: COc1cccc2c1C(=O)c1c(O)c3c(c(O)c1C2=O)C[C@@](O)(C(=O)CO)C[C@@H]3O[C@H]1C[C@H](N)[C@H](O)[C@H](C)O1
MEASURED_VALUE: active; positive
//
COMPOUND: C=CC(=O)CC
MEASURED_VALUE: inactive; negative
//
COMPOUND: Oc1c(Cl)c(Cl)c(Cl)c(Cl)c1Cl
MEASURED_VALUE: inactive; negative
//
COMPOUND: CC(O)COC(C)(C)C (stereo not drawn)
MEASURED_VALUE: active; weakly positive
//
COMPOUND: CN(C)CCC(c1ccc(Cl)cc1)c1ccccn1 (stereo not drawn)
MEASURED_VALUE: inactive; negative
//
COMPOUND: O=C1c2ccccc2C(=O)c2ccccc21
MEASURED_VALUE: active; positive
//
COMPOUND: CO[C@@]12[C@H](COC(N)=O)C3=C(C(=O)C(C)=C(N)C3=O)N1C[C@@H]1N[C@@H]12
MEASURED_VALUE: active; positive
//
COMPOUND: CC(C)=CCl
MEASURED_VALUE: active; positive
//
COMPOUND: CC[n+]1c(-c2ccccc2)c2cc(N)ccc2c2ccc(N)cc21
MEASURED_VALUE: inactive; negative
//
COMPOUND: C=CCOC(C)=O
MEASURED_VALUE: active; weakly positive
//
COMPOUND: Cc1c2oc3c(C)ccc(C(=O)N[C@@H]4C(=O)N[C@H](C(C)C)C(=O)N5CCC[C@H]5C(=O)N(C)CC(=O)N(C)[C@@H](C(C)C)C(=O)O[C@@H]4C)c3nc-2c(C(=O)N[C@@H]2C(=O)N[C@H](C(C)C)C(=O)N3CCC[C@H]3C(=O)N(C)CC(=O)N(C)[C@@H](C(C)C)C(=O)O[C@@H]2C)c(N)c1=O (I: T[dV]P[Sar][NMeV] / II: T[dV]P[Sar][NMeV]; ester I:1-I:C, II:1-II:C; linker I:N-II:N via Actinocin(9to1))
MEASURED_VALUE: active; positive
//
COMPOUND: Cc1cnc[nH]1
MEASURED_VALUE: inactive; negative
//
COMPOUND: c12c3c4c5c1c1c6c7c2c2c8c3c3c9c4c4c%10c5c5c1c1c6c6c%11c7c2c2c7c8c3c3c8c9c4c4c9c%10c5c5c1c1c6c6c%11c2c2c7c3c3c8c4c4c9c5c1c1c6c2c3c41
MEASURED_VALUE: inactive; negative
//
COMPOUND: c1ccc(N=NNc2ccccc2)cc1
MEASURED_VALUE: active; positive
//
COMPOUND: CCOC(C)(C)C
MEASURED_VALUE: inactive; negative
